test system: Panc1 cells; format: cell-based, human
Measured reduction in viability accompanies every entry in the list below.

{"columns": ["Substance", "Target under test", "Observed result"],
 "data": [
  ["Goosecoid-1: siRNA targeting Goosecoid; sense agcauguucagcaucgacadTdT, antisense ugucgaugcugaacaugcudTdT; SEQ ID No's 127-128 (sense AGCAUGUUCAGCAUCGACATT; antisense UGUCGAUGCUGAACAUGCUTT; DNA at 20, 21, other sugars and backbone not given here)", "Panc1 cells", "~50%"],
  ["Zeb1-2: siRNA targeting Zeb1; sense cagguguaagcgcagaaagdTdT, antisense cuuucugcgcuuacaccugdTdT; SEQ ID No's 112-113 (sense CAGGUGUAAGCGCAGAAAGTT; antisense CUUUCUGCGCUUACACCUGTT; DNA at 20, 21, other sugars and backbone not given here)", "Panc1 cells", "~50%"]
]}

Now look at this entry.
Tell me the measured reduction in viability of siG12D: siRNA against K-ras G12D; sense GUUGGAGCUGAUGGCGUAGdTdT, antisense CUACGCCAUCAGCUCCAACdTdT (SEQ ID No: 41-42) (sense GUUGGAGCUGAUGGCGUAGTT; antisense CUACGCCAUCAGCUCCAACTT; DNA at 20, 21, other sugars and backbone not given here) , please. ~50%
